Hey, just so you know, these numbers are from ChEMBL document CHEMBL1201862.

Experiment: viability of uninfected HEp-2 cells – cell-based, HTS, cytotoxicity control for RSV inhibitor project, dose response (AID 2410)
Type: functional
Conditions: human respiratory syncytial virus
Calls of active or inactive are those of the source.
observed_property: CC50

* COc1cc(/C=N/NC(=O)c2cc(-c3cccc(Br)c3)nc3ccccc23)cc(OC)c1O | 36 µM (active)
* CSc1nc(-c2ccc(C)cc2)nc(N)c1C#N | 49.6 µM (active)
* CCCCOc1ccccc1C1C(C(=O)OC)=C(C)N(C)C(C)=C1C(=O)OC | > 50 µM (active)
* Cc1ccc(NC(=O)c2cc(C)n(-c3ccccc3)c2C)cc1 | 16.9 µM (active)

====

Measured EC50, listed per entry.
Test: NIH-3T3 fibroblast cytotoxicity, dose response, cytotoxicity control, cell-based, fluorescence, Alamar Blue, secondary assay (AID 2327);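 further: NIH-3T3 mouse fibroblasts cultured with fluconazole at 8 µg/mL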
Assay type: functional
Active and inactive are the calls of the source.
observed_property: EC50

• CCn1nnnc1NC(=O)c1cc(Cl)c(OC)c(Cl)c1 = > 160 µM (inactive)
• Cc1ccccc1-c1ccnc2[nH]n(-c3ccccc3)c(=O)c12 = > 160 µM (inactive)
• Cn1c(N=NO)nc2ccccc21 = > 150 µM (inactive)
• Cc1nc(C)c(C(=O)N/N=C/c2cc(Br)ccc2O)s1 = > 150 µM (inactive)

====

Target: Induced myeloid leukemia cell differentiation protein Mcl-1 (Homo sapiens)
Sequence (Q07820 whole entry): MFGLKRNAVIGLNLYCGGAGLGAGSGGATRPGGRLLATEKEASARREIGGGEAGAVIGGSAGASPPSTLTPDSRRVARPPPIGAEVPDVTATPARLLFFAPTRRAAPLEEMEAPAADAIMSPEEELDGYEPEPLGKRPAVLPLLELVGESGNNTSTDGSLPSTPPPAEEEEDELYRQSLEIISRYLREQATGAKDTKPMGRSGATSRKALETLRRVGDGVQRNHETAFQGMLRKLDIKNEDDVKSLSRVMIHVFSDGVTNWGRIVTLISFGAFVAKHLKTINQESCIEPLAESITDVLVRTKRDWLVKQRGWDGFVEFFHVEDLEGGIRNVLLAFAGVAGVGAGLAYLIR
Assay type: functional
Calls of active or inactive are those of the source.
Measured IC50, listed per entry.
observed_property: IC50

* O=[N+]([O-])c1cc(Cl)cc(/C=N/NC(=S)Nc2ccc(S(=O)(=O)N3CCOCC3)cc2)c1O | 3.47 µM (active)
* O=C(O)CCn1cc(C=C2C(=O)NC(=S)NC2=O)c(-c2cccc(Cl)c2)n1 | 2.87 µM (active)
* O=C(Nc1nc2ccccc2[nH]1)c1ccc(Cl)c([N+](=O)[O-])c1 | 6.46 µM (active)
* Nc1c(O)ccc2c1C(=O)c1ccccc1C2=O | 3.66 µM (not active)

====

Molecular target: UniProt:Q8IL11
Sequence (Q8IL11 whole entry): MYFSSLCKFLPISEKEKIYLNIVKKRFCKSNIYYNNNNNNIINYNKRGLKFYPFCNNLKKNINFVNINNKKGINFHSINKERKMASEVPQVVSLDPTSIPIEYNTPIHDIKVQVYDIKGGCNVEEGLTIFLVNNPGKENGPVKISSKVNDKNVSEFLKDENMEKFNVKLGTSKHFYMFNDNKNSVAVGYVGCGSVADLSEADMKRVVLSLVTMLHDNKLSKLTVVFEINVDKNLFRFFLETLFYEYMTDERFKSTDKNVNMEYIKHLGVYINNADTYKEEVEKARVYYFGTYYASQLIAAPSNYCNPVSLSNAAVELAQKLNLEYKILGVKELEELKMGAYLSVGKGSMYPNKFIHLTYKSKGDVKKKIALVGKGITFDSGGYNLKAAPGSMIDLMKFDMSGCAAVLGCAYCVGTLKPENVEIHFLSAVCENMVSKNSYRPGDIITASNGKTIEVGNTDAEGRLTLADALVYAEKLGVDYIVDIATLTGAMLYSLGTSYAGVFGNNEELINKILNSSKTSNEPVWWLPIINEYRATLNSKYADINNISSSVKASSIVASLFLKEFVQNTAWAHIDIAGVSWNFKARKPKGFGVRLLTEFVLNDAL
Test: P. falciparum M17LAP inhibitors, primary screen, biochemical, fluorogenic H-Leu-NHMec substrate, 1536-well (AID 1619)
Type: functional
The source made the active and inactive calls.
observed_property: IC50

* N#Cc1c(NC(=O)CSc2nc[nH]n2)sc2c1CCCCC2 | < 1 µM (active)
* CC1CCC2(CC1)NC(=O)N(CC(=O)Nc1ccc3c(c1)OCCO3)C2=O (stereo not drawn) | 13.8 µM (active)
* COc1nccnc1NS(=O)(=O)c1ccc(/N=C/c2c(C)nn(-c3ccc(C)c(C)c3)c2O)cc1 | 19.3 µM (active)
* CCOc1cc(/C=C2/SC(=O)N(CC(=O)N3CCc4ccccc4C3)C2=O)ccc1OCC(=O)O | 10.6 µM (active)
* O=C(CSc1nc(O)cc(=O)n1-c1ccccc1)Nc1ccc2c3c(cccc13)CC2 | 1.45 µM (active)
* O=C(CSc1ncccc1C(=O)O)NCc1ccc(F)cc1 | 42.7 µM (active)
* Cc1ccc(-n2c(SCC(=O)N3Cc4ccccc4CC3C(=O)O)nnc2-c2cccnc2)c(C)c1 (stereo not drawn) | 3.12 µM (active)
* Cc1cc(C=C2C(=O)c3ccccc3C2=O)c(C)n1-c1cccc(C(=O)O)c1 | 18.6 µM (active)
